Quick record of pKi values for PI3K γ (Homo sapiens).
pKi: −log10 of the molar value.
experimental readout: pKi

smiles entry: CC(C)n1ncnc1-c1cn2c(n1)-c1cnc(N3CCC[C@H]3C(N)=O)cc1OCC2
measurement target: PI3K γ (Homo sapiens)
Sequence (P48736 whole entry): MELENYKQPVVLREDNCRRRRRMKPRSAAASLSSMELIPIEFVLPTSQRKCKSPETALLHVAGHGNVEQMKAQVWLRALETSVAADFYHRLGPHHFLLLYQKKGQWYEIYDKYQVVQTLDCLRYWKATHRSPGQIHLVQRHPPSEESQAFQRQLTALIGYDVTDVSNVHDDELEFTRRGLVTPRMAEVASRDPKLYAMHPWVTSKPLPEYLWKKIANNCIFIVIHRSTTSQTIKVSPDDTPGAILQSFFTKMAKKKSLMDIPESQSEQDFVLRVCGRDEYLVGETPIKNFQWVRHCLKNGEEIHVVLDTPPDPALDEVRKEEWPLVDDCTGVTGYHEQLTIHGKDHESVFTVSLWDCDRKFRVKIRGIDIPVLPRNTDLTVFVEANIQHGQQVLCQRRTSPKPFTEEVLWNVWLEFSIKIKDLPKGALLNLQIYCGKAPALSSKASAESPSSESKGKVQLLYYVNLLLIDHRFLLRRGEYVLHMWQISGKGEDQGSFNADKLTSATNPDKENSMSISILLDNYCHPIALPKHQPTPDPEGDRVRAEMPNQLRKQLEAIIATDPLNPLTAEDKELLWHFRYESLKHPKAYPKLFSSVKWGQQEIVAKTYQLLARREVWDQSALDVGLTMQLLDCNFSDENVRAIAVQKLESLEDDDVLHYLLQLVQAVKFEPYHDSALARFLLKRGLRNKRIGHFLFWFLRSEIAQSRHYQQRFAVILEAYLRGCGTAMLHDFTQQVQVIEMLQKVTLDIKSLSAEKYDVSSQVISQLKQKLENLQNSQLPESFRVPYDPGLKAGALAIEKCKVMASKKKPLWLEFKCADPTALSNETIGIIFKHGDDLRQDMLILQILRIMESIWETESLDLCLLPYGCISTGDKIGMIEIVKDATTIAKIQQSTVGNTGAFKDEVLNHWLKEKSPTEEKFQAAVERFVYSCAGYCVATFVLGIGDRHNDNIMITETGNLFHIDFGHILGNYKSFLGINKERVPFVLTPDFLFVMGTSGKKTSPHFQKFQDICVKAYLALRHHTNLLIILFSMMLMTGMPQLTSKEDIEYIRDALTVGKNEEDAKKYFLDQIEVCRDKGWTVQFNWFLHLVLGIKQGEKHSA
experimental readout: pKi
recorded result: 7.80

smiles entry: Cc1nc(-c2cn3c(n2)-c2ccc(-c4cnn(C(C)(C)C(N)=O)c4)cc2OCC3)n(C(C)C)n1
measurement target: PI3K γ (Homo sapiens)
experimental readout: pKi
recorded result: 9.05

smiles entry: CC(C)n1ncnc1-c1cn2c(n1)-c1ccc(O[C@@H](C)C(N)=O)cc1OCC2
measurement target: PI3K γ (Homo sapiens)
experimental readout: pKi
recorded result: 7.92
